# experimentSummary: Dose tolerance studies / MTD in mice
# testParameters: NOD/SCID, mouse, in vivo, po
Entries and their MTD values follow.

compound: Cc1ncc(C(=O)N[C@@H](COC(F)F)C(=O)N[C@@H](COC(F)F)C(=O)N[C@@H](Cc2ccccc2)C(=O)[C@@]2(C)CO2)s1 [FV-162]
unitsSymbol: mg/kg
MTD: 200

compound: COC[C@H](NC(=O)c1cnc(C)s1)C(=O)N[C@@H](COC)C(=O)N[C@@H](Cc1ccccc1)C(=O)[C@@]1(C)CO1 [ONX-0912, reference compound]
unitsSymbol: mg/kg
MTD: 40

---

Entries and their Vd values follow.
# experimentSummary: Pharmacokinetic study in NOD/SCID mice
# Format: in vivo
# testParameters: plasma, iv, mouse, 5 mg/kg i.v.
readoutName: Vd (L/kg)

compound: Cc1ncc(C(=O)N[C@@H](COC(F)F)C(=O)N[C@@H](COC(F)F)C(=O)N[C@@H](Cc2ccccc2)C(=O)[C@@]2(C)CO2)s1 [FV-162]
unitsSymbol: L/kg
valueMeasured: 96

compound: COC[C@H](NC(=O)c1cnc(C)s1)C(=O)N[C@@H](COC)C(=O)N[C@@H](Cc1ccccc1)C(=O)[C@@]1(C)CO1 [ONX-0912, reference compound]
unitsSymbol: L/kg
valueMeasured: 48
